assay-comment: in vivo
applied-conditions: female, cynomolgus monkey, po, 5 mg/kg
measured-parameter: half-life (min)

>>> df
                                   molecule  measured_parameter  observed_result
0  COc1c(N2C[C@@H](N)C3(CC3)C2)c(F)cc2c(=O)c(C(=O)O)cn([C@@H]3C[C@@H]3F)c12           half-life              300
1  COc1c(N2CC(C)(N)C3(CC3)C2)c(F)cc2c(=O)c(C(=O)O)cn([C@@H]3C[C@@H]3F)c12 (some centres unmarked)           half-life              288

====

assay-comment: in vivo
applied-conditions: male, Crj:CD IGS, rat, po, 5 mg/kg
measured-parameter: Cmax (ng/mL)

In [3]: df
Out[3]:
                                   molecule  output_unit  observed_result
0  COc1c(N2C[C@@H](N)C3(CC3)C2)c(F)cc2c(=O)c(C(=O)O)cn([C@@H]3C[C@@H]3F)c12        ng/mL              820
1  COc1c(N2C[C@H](C)[C@@](C)(N)C2)c(F)cc2c(=O)c(C(=O)O)cn([C@@H]3C[C@@H]3F)c12 (single isomer, unassigned)        ng/mL              670
2  COc1c(N2CC(C)(N)C3(CC3)C2)c(F)cc2c(=O)c(C(=O)O)cn([C@@H]3C[C@@H]3F)c12 (stereo partly drawn)        ng/mL             1220

====

Parameters: species or system guinea pigs (Slc:Hertley)
applied-conditions: male, Slc:Hertley, guinea pig, in vivo
measured-parameter: Average score in GPMT

                                   molecule  observed_result
0  COc1c(N2CC(C)(N)C3(CC3)C2)c(F)cc2c(=O)c(C(=O)O)cn([C@@H]3C[C@@H]3F)c12 (stereo partly shown)                0
1  COc1c(N2C[C@@H](N)C3(CC3)C2)c(F)cc2c(=O)c(C(=O)O)cn([C@@H]3C[C@@H]3F)c12              6.8
2  COc1c(N2C[C@@H]3CCCN[C@@H]3C2)c(F)cc2c(=O)c(C(=O)O)cn(C3CC3)c12 [MFLX, moxifloxacin, reference compound]                0
3  CO/N=C1\CN(c2nc3c(cc2F)c(=O)c(C(=O)O)cn3C2CC2)CC1CN (stereo not shown)              6.8

====

tested-target: hERG K+ channel (Homo sapiens, UniProt Q12809)
Sequence (Q12809 whole entry): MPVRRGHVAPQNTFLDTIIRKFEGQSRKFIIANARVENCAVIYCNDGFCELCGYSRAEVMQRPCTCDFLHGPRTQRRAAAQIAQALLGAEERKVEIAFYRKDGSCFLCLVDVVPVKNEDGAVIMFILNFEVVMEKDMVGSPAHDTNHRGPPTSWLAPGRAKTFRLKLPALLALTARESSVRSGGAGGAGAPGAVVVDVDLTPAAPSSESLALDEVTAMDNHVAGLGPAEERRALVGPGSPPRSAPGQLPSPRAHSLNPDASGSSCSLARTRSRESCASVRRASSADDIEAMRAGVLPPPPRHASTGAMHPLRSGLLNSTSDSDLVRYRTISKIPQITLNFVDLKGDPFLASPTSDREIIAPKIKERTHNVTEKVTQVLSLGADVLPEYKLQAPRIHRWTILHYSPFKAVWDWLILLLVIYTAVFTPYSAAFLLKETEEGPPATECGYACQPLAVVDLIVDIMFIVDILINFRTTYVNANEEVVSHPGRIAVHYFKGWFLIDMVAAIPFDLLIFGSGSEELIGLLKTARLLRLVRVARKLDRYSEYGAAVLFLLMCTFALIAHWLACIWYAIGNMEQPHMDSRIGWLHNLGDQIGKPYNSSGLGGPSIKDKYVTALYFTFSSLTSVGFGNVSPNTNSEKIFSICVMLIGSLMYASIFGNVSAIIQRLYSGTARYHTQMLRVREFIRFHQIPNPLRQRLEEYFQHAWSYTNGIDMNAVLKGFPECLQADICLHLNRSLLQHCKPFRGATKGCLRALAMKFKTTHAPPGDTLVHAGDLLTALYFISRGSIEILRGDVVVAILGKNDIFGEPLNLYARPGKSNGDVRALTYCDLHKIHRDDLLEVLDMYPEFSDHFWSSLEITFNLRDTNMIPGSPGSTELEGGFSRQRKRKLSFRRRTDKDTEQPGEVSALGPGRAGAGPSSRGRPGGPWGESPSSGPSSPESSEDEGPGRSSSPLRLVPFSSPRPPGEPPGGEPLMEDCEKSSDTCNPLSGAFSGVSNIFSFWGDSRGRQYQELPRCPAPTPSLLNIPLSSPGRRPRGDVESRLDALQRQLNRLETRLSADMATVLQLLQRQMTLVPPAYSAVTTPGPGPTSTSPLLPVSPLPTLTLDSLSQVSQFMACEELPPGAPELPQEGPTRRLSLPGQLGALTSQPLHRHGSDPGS
assay-comment: hERG-K^+ channel blocking effect
Reported inhibition at 100 µM is given for each of the following compounds.
measured-parameter: inhibition at 100 µM (%)

>>> df
                                   compound  observed_result
0  COc1c(N2C[C@@H](N)C3(CC3)C2)c(F)cc2c(=O)c(C(=O)O)cn([C@@H]3C[C@@H]3F)c12 [Comparative compound 1]             13.5
1  Cc1c(N2CC(F)[C@](C)(N)C2)c(F)cc2c(=O)c(C(=O)O)cn([C@@H]3C[C@@H]3F)c12 (single isomer, unassigned) [Example 27]              0.6
2  COc1c(N2C[C@H](C)[C@@](C)(N)C2)c(F)cc2c(=O)c(C(=O)O)cn([C@@H]3C[C@@H]3F)c12 (single isomer, unassigned) [Example 2]              8.5
3  COc1c(N2CCNC(C)C2)c(F)cc2c(=O)c(C(=O)O)cn(C3CC3)c12 (stereo not drawn) [GTFX, gatifloxacin, reference compound]             17.6
4  COc1c(N2CC(C)(N)C3(CC3)C2)c(F)cc2c(=O)c(C(=O)O)cn([C@@H]3C[C@@H]3F)c12 (stereo partly drawn) [Example 9]             10.2
5  COc1c(N2C[C@H](CF)[C@](C)(N)C2)c(F)cc2c(=O)c(C(=O)O)cn([C@@H]3C[C@@H]3F)c12 [Example 20]              8.5
